Entries and their measured pIC50 follow.
- target or test system: UniProt:P25025
- Sequence (P25025 whole entry): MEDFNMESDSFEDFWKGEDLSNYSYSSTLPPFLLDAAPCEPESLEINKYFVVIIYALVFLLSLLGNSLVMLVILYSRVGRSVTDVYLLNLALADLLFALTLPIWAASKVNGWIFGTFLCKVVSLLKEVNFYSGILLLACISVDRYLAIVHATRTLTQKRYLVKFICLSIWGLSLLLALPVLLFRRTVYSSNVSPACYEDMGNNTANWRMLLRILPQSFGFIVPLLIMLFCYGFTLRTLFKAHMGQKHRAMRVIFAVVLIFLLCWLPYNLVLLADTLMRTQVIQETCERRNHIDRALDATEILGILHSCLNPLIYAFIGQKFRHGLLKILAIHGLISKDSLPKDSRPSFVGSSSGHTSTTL
- method summary: Inhibition of CXCR2
pIC50: −log10 of the molar value.
quantity: pIC50

• CCC(Nc1c(Nc2cccc(C(=O)N(C)C)c2O)c(=O)c1=O)c1cocn1 (stereo unspecified) = 7.96
• CCC(Nc1c(Nc2cccc(C(=O)N(C)C)c2O)c(=O)c1=O)c1cccn1C (stereo unspecified) = 6.09
• CCC(Nc1c(Nc2cccc(C(=O)N(C)C)c2O)c(=O)c1=O)c1ccc(C(F)(F)F)o1 (stereo unspecified) = 7.76
• CCC(Nc1c(Nc2cccc(C(=O)N(C)C)c2O)c(=O)c1=O)c1cc(C)on1 (stereo unspecified) = 8.12
• CCC(Nc1c(Nc2cccc(C(=O)N(C)C)c2O)c(=O)c1=O)c1nccs1 (stereo unspecified) = 8.01
• CCC(Nc1c(Nc2cccc(C(=O)N(C)C)c2O)c(=O)c1=O)c1ccc(Cl)s1 (stereo unspecified) = 8.21
• CCC(Nc1c(Nc2cccc(C(=O)N(C)C)c2O)c(=O)c1=O)c1cc(-c2ccsc2)co1 (stereo unspecified) = 8.09
• CCC(Nc1c(Nc2cccc(C(=O)N(C)C)c2O)c(=O)c1=O)c1ccc(Cl)o1 (stereo unspecified) = 8.32
• CCC(Nc1c(Nc2cccc(C(=O)N(C)C)c2O)c(=O)c1=O)c1cc(-c2c(C)noc2C)co1 (stereo unspecified) = 8.12
• CCC(Nc1c(Nc2cccc(C(=O)N(C)C)c2O)c(=O)c1=O)c1ccc(-c2ccccc2Cl)o1 (stereo unspecified) = 7.31
• CCC(Nc1c(Nc2cccc(C(=O)N(C)C)c2O)c(=O)c1=O)c1ccncc1 (stereo unspecified) = 7.30
• CCC(Nc1c(Nc2cccc(C(=O)N(C)C)c2O)c(=O)c1=O)c1ccc(-c2ccccc2C(F)(F)F)o1 (stereo unspecified) = 6.82
• CCC(Nc1c(Nc2cccc(C(=O)N(C)C)c2O)c(=O)c1=O)c1cc(Br)co1 (stereo unspecified) = 8.30
• CC[C@@H](Nc1c(Nc2cccc(C(=O)N(C)C)c2O)c(=O)c1=O)c1ccc(Cl)o1 = 8.34
• CC[C@@H](Nc1c(Nc2cccc(C(=O)N(C)C)c2O)c(=O)c1=O)c1cc(Br)co1 = 8.46
• CCC(Nc1c(Nc2cccc(C(=O)N(C)C)c2O)c(=O)c1=O)c1cccs1 (stereo unspecified) = 8.21
• CCc1ccc(C(CC)Nc2c(Nc3cccc(C(=O)N(C)C)c3O)c(=O)c2=O)o1 (stereo unspecified) = 8.39
• CCC(Nc1c(Nc2cccc(C(=O)N(C)C)c2O)c(=O)c1=O)c1cc(Cl)co1 (stereo unspecified) = 8.35
• CCC(Nc1c(Nc2cccc(C(=O)N(C)C)c2O)c(=O)c1=O)c1ccc(Br)o1 (stereo unspecified) = 8.33
• CCC(Nc1c(Nc2cccc(C(=O)N(C)C)c2O)c(=O)c1=O)c1ccc(C(=O)N(C)C)o1 (stereo unspecified) = 6.77
• CCC(Nc1c(Nc2cccc(C(=O)N(C)C)c2O)c(=O)c1=O)c1sccc1Cl (stereo unspecified) = 7.68
